assay: Induction of GK translocation from nucleus to cytoplasm of mouse hepatocytes preincubated for 20 mins followed by glucose challenge measured after 40 mins by Hoechst 33342 staining-based assay
pEC50: −log10 of the molar value.
assay_metric: pEC50

Query string: # pEC50 lookup, item Cc1csc(-c2cc(C(O)(C(F)(F)F)C(F)(F)F)cnc2N2CCN(S(=O)(=O)c3ccc(N)nc3)CC2)c1
Result string: 5.92

Query string: # pEC50 lookup, item Nc1ccc(S(=O)(=O)N2CCN(c3ncc(C(O)(C(F)(F)F)C(F)(F)F)cc3-c3cnccc3F)CC2)cn1
Result string: 5.89

Query string: # pEC50 lookup, item Nc1ccc(S(=O)(=O)N2CCN(c3ncc(C(O)(C(F)(F)F)C(F)(F)F)cc3C#CC3CC3)CC2)cn1
Result string: 5.47

(1) CCn1cc(-c2cc(C(O)(C(F)(F)F)C(F)(F)F)cnc2N2CCN(S(=O)(=O)c3ccc(N)nc3)CC2)cn1
(2) Nc1ccc(S(=O)(=O)N2CCN(c3ncc(C(O)(C(F)(F)F)C(F)(F)F)cc3-c3ccc(F)cc3)CC2)cn1
(3) Nc1ccc(S(=O)(=O)N2CCN(c3ncc(C(O)(C(F)(F)F)C(F)(F)F)cc3-c3cccc(F)c3)CC2)cn1
(4) COCC#Cc1cc(C(O)(C(F)(F)F)C(F)(F)F)cnc1N1CCN(S(=O)(=O)c2ccc(N)nc2)CC1
(5) Cc1cncc(-c2cc(C(O)(C(F)(F)F)C(F)(F)F)cnc2N2CCN(S(=O)(=O)c3ccc(N)nc3)CC2)c1
Query string: List items by pEC50 in falling order. Respond with an ordered listing of the labels, as requested.
Result string: 1, 4, 5, 2, 3

(P) Nc1ccc(S(=O)(=O)N2CCN(c3ncc(C(O)(C(F)(F)F)C(F)(F)F)cc3-c3ccc4scnc4c3)CC2)cn1
(Q) Cn1cc(-c2cc(C(O)(C(F)(F)F)C(F)(F)F)cnc2N2CCN(S(=O)(=O)c3ccc(N)nc3)CC2)cn1
Query string: Could you point out whether the larger pEC50 belongs to P or to Q ? Reply briefly: the label of your chosen item.
Result string: Q
(Q: 7.28, P: 5.94)

(1) COc1cncc(-c2cc(C(O)(C(F)(F)F)C(F)(F)F)cnc2N2CCN(S(=O)(=O)c3ccc(N)nc3)CC2)c1
(2) Nc1ccc(S(=O)(=O)N2CCN(c3ncc(C(O)(C(F)(F)F)C(F)(F)F)cc3-c3cc4ccccc4s3)CC2)cn1
Query string: // compare measured pEC50 between 1 and 2 ; output the lower one Reply briefly: the label of your chosen item.
Result string: 2
(2: 5.56, 1: 5.85)

(P) Nc1ccc(S(=O)(=O)N2CCN(c3ncc(C(O)(C(F)(F)F)C(F)(F)F)cc3-c3ccoc3)CC2)cn1
(Q) Nc1ccc(S(=O)(=O)N2CCN(c3ncc(C(O)(C(F)(F)F)C(F)(F)F)cc3-c3ccncc3)CC2)cn1
Query string: // compare measured pEC50 between P and Q ; output the lower one Reply briefly: the label of your chosen item.
Result string: P
(P: 5.76, Q: 6.03)
